# procedure_details: Selectivity index, ratio of CC50 for human MT-4 cells to EC50 for HIV-1
# Assay type: toxicity, cell-based, MT4
# measurement_conditions: read-out: Ratio CC50/EC50
property: selectivity ratio

structure | inequality_sign | assay_value
C#C[C@]1(CO)S[C@@H](n2cnc3c(N)ncnc32)C[C@@H]1O | > | 230
C#C[C@]1(CO)O[C@@H](n2cnc3c(N)ncnc32)C[C@@H]1O | = | 1630
C#C[C@]1(CO)S[C@@H](n2ccc(N)nc2=O)C[C@@H]1O | = | 545
C#C[C@]1(CO)S[C@@H](n2cnc3c(=O)[nH]c(N)nc32)C[C@@H]1O | > | 18200
C#C[C@]1(CO)O[C@@H](n2cnc3c(=O)[nH]c(N)nc32)C[C@@H]1O | = | 933
